Assay: clinical
Design: species or system human
Settings: male, human, in vivo
VALUE_KIND: concentration at 2 h (ng/g)
Your answer should be a plain number; it is taken to be in ng/g.

{"RECORD_SMILES": "COc1cc2c(cc1Cc1cccc(Cl)c1F)c(=O)c(C(=O)O)cn2[C@H](CO)C(C)C", "UNIT_DESCRIPTOR": "ng/g", "concentration at 2 h": 1070}

Please find the next molecule below.
Please report the recorded concentration at 2 h for O=C(NCc1c(F)cc(F)cc1F)c1cn2c(c(O)c1=O)C(=O)N1[C@H]3CC[C@H](C3)O[C@@H]1C2 .
270

----------
Format: in vivo, human
Settings: male, human, PBMCs, oral, 200 mg
VALUE_KIND: Tmax (h)
# unit: h | format: bare number

Fill in: Tmax of Nc1nc(=O)n([C@@H]2CS[C@H](COP(=O)(O)OP(=O)(O)OP(=O)(O)O)O2)cc1F [emtricitabine triphosphate] is ___
26

----------
Assay: clinical
Design: species or system human
Details: male, human, in vivo, po
VALUE_KIND: Cmax (ng/g)
I only need the number, in ng/g, no unit after it.

{"MOLECULE": "O=C(NCc1c(F)cc(F)cc1F)c1cn2c(c(O)c1=O)C(=O)N1[C@H]3CC[C@H](C3)O[C@@H]1C2 [bictegravir]", "UNIT_DESCRIPTOR": "ng/g", "MEASURED_RESULT": 290}

Lab note: next molecule to report on.
Quick one: Cmax of COc1cc2c(cc1Cc1cccc(Cl)c1F)c(=O)c(C(=O)O)cn2[C@H](CO)C(C)C [elvitegravir] ?
3310

----------
Assay: clinical
Design: species or system human
Details: male, human, in vivo, po
VALUE_KIND: Cmax (ng/mL)
Only the number, expressed in ng/mL, is required.

{"COMPOUND": "O=C(NCc1c(F)cc(F)cc1F)c1cn2c(c(O)c1=O)C(=O)N1[C@H]3CC[C@H](C3)O[C@@H]1C2 [bictegravir]", "UNIT_DESCRIPTOR": "ng/mL", "Cmax": 1770}

What value of Cmax has been recorded for this entry: COc1cc2c(cc1Cc1cccc(Cl)c1F)c(=O)c(C(=O)O)cn2[C@H](CO)C(C)C [elvitegravir]
2010

----------
Test: clinical
Set-up: species or system human
Settings: male, human, in vivo, po
Parameter: Tmax. Scope: all listed entries.
The figure you give is taken to be in h; do not add the unit.

Fill blank: measured Tmax of the molecule COc1cc2c(cc1Cc1cccc(Cl)c1F)c(=O)c(C(=O)O)cn2[C@H](CO)C(C)C is ____.
28

What does the record list as Tmax for O=C(NCc1c(F)cc(F)cc1F)c1cn2c(c(O)c1=O)C(=O)N1[C@H]3CC[C@H](C3)O[C@@H]1C2 ?
2

----------
Test: clinical
Parameters: species or system human
Conditions: male, human, in vivo
VALUE_KIND: Tmax (h)
The reply should be a number in h, with the unit left off.

Can you look up the measured Tmax of COc1cc2c(cc1Cc1cccc(Cl)c1F)c(=O)c(C(=O)O)cn2[C@H](CO)C(C)C for me?
4
